- TARGET_OR_SYSTEM: TARP γ8 dependent GluA1 flop receptors (Homo sapiens, UniProt P42261+Q8WXS5)
- Construct: expressed in transfected cells; host or cells: CHO-S (Invitrogen), transient transfection
- Sequence (P42261 19-906): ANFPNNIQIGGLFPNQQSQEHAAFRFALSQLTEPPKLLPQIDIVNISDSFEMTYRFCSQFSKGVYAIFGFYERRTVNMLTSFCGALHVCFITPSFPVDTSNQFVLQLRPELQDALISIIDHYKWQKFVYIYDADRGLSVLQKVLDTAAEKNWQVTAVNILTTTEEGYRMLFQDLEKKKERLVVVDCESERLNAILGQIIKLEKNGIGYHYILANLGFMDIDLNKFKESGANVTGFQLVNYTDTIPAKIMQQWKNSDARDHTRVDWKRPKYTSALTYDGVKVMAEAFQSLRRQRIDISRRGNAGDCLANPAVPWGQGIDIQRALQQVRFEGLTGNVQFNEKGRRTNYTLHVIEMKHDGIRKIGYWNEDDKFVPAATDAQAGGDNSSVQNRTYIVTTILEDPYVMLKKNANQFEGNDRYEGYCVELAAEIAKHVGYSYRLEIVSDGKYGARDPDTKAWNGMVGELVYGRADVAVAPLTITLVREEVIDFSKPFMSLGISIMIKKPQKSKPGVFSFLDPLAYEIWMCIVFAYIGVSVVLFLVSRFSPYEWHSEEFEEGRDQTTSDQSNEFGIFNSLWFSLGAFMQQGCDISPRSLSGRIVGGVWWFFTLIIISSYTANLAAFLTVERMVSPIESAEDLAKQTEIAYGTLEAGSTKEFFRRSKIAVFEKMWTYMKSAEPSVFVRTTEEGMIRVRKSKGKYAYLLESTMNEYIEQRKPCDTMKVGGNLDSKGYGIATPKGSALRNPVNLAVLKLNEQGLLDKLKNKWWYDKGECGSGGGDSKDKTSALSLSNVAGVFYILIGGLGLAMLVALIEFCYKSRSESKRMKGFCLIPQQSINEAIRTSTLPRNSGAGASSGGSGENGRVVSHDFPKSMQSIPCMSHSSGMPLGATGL
- Sequence (Q8WXS5 whole entry): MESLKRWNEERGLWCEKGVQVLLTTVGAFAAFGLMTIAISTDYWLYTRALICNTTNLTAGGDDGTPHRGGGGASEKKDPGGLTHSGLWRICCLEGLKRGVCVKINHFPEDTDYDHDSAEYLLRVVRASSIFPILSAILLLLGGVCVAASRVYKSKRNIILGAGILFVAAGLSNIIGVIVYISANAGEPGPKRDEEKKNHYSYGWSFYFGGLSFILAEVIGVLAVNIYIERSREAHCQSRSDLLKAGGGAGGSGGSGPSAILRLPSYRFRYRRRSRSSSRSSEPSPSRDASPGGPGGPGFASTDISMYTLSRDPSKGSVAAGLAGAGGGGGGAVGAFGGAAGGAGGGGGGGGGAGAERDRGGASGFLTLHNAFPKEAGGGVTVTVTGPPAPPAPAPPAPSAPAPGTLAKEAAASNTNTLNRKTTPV
- ASSAY_TEXT: FLIPR antagonist functional assay, GluA1 flop co-expressed with TARP γ8 in CHO-S cells
- Format: cell-based
- DETAILS: glutamate 45 μM plus CTZ 20 μM, read-out: relative IC50, inhibition of glutamate plus CTZ activation of TARP γ8 dependent GluA1 flop receptors
pIC50: −log10 of the molar value.
OBSERVABLE: pIC50

COMPOUND: CC(=O)c1ccc(-c2csc(C(C)c3ccc4[nH]c(=O)sc4c3)n2)nc1 (single isomer, unassigned)
pIC50: 7.08
//
COMPOUND: CC(c1ccc2[nH]c(=O)sc2c1)c1csc(-c2ccccn2)n1 (single isomer, unassigned)
pIC50: 7.18
//
COMPOUND: C[C@@H](c1ccc2[nH]c(=O)sc2c1)c1ccn(-c2ccc(CCO)cn2)n1 (single isomer, unassigned)
pIC50: 7.21
//
COMPOUND: CC(c1ccc2[nH]c(=O)sc2c1)c1ccn(-c2ccc(N3CCC(O)CC3)cn2)n1 (single isomer, unassigned)
pIC50: 7.04
